// provenance: PubChem BioAssay (NCI)

Test system: SK-MEL-2 melanoma
Test: NCI tumour cell line growth inhibition, 48 h
Catalogue of TGI values

C[C@@H](CS(C)(=O)=O)Nc1ncc2cc(Oc3ccc(F)cc3F)c(=O)n(C)c2n1 | > 25 µM
Cc1ccc(S(=O)(=O)NC(=O)NC(CC(N)=O)C(=O)O)cc1 (stereo not drawn) | > 100 µM
O=[N+]([O-])c1cccc2nc3ccccc3c(NCCCCNc3c4ccccc4nc4cccc([N+](=O)[O-])c34)c12 | > 100 µM

Challenge: Value wanted: TGI (SK-MEL-2 melanoma) of entry CCOC(=O)C1=C(C)CC2C(=O)OC(=O)C2C1(C)C (stereo not drawn)
Response given: > 100 µM

Challenge: Try NC(=O)c1ccc(C(=O)Nc2ccc([As](=O)(O)O)cc2)cc1 next.
Response given: > 100 µM

Challenge: Try CC1=CC(=O)[C@@H](O)[C@]2(C)[C@H]3[C@@]4(O)OC[C@]35[C@H]([C@@H](C)[C@H]4O)[C@@H](OC(=O)C(C)(C)CO)C(=O)O[C@@H]5C[C@@H]12 next.
Response given: 0.559 µM

---

System: SR leukemia
Test: NCI tumour cell line growth inhibition, 48 h; in the data active = GI50 below about 0.43 µM; inactive = the rest
Please answer using one outcome listed in True for active, False for inactive

COc1ccc(C2=CSc3cc(Cl)c(C)cc3S(=O)(=O)N2C(C)=O)cc1 | False
CN(C)CCCNC1=C(Cl)C(=O)c2ccccc2C1=O | False
O=C1/C(=C/c2ccc([N+](=O)[O-])cc2)COc2ccc(O)c(O)c21 | False

Challenge: Any idea what this test logged for COc1ccc2c(c1)C(=O)/C(=C/c1ccc(OCC(=O)Nc3nccs3)cc1)O2 ?
Response given: True

Challenge: Try COc1cc(C(=O)/C=C/c2sc(Cl)nc2Cl)cc(OC)c1OC next.
Response given: True

Challenge: Try NC1CCC(Nc2nc(NCc3ccc(-c4ccco4)nc3)c3ncn(C4CCCC4)c3n2)CC1 (stereo unspecified) next.
Response given: True

Challenge: Try NC(CSC(c1ccccc1)(c1ccccc1)c1ccc2c(c1)OCO2)C(=O)O (stereo unspecified) next.
Response given: True

Challenge: Try CNC(=O)c1cc(Oc2ccc3nc(NC(=O)Nc4ccc(Cl)c(C(F)(F)F)c4)sc3c2)ccn1 next.
Response given: True

Challenge: Try COc1cc2c(c(OC)c1O)C(=O)C(OC)C(c1ccc(O)c(O)c1)O2 (stereo unspecified) next.
Response given: True

Challenge: Try O=C(Nc1ccc(I)cc1)c1cc([N+](=O)[O-])ccc1O next.
Response given: False

Challenge: Try Cn1ccnc1C(=O)/C=C/c1ccc(CC(=O)Nc2ccc(Br)cc2)cc1 next.
Response given: False

---

Tested on: NCI-H460 lung
Assay: NCI tumour cell line growth inhibition, 48 h
Catalogue of TGI values
Kindly answer with a numeric value in µM, unit omitted.

Challenge: Please give the measured TGI for this molecule: COc1ccc(C2=CSc3cc(Cl)c(C)cc3S(=O)(=O)N2C(C)=O)cc1
Response given: 99.5

Challenge: Try COc1cc(/C=C/c2cc(/C=C/c3ccc(O)c(OC)c3)n(C(=O)Nc3ccc(F)cc3)n2)ccc1O next.
Response given: 12.4

Challenge: Try O=C1OCN(c2ccccc2)C12CCN(Cc1ccccc1)CC2 next.
Response given: 54.5

Challenge: Try O=C1C2=C(SCCS2)C(=O)c2ccccc21 next.
Response given: 3.38

---

Catalogue of log10 of TGI values
Tested on: OVCAR-3 ovarian
Experiment: NCI tumour cell line growth inhibition, 48 h
// do not treat as linear: log10 of TGI, unit µM

The following compounds have reported results that may help.
COc1c2ccoc2c(/C=C/C=O)c2oc(-c3ccccc3)cc(=O)c12 | 1.34
CN1CCc2cc3c(c4c2C1C(O)c1ccccc1-4)OCO3 (stereo not given) | 1.64
CC(C)(C)c1cc(C(=O)/C=C/c2c(Cl)cccc2Cl)cc(C(C)(C)C)c1O | 1.40
COc1ccc(C2=CSc3cc(Cl)c(C)cc3S(=O)(=O)N2C(C)=O)cc1 | 1.62

Let us examine a further case.
Challenge: Please give the measured log10 of TGI for this compound: O=[N+]([O-])c1cccc2nc3ccccc3c(NCCCCNc3c4ccccc4nc4cccc([N+](=O)[O-])c34)c12
Response given: -0.64

---

Tested on: UACC-62 melanoma
Assay: NCI tumour cell line growth inhibition, 48 h
readoutLabel: TGI (µM)
Kindly answer with a numeric value in µM, unit omitted.

The following molecules have reported results that may help.
O=C1/C(=C/c2ccc([N+](=O)[O-])cc2)COc2ccc(O)c(O)c21 | 3.35
O=[N+]([O-])c1cccc2nc3ccccc3c(NCCCCNc3c4ccccc4nc4cccc([N+](=O)[O-])c34)c12 | 0.302
Cn1ccnc1C(=O)/C=C/c1ccc(CC(=O)Nc2ccc(Br)cc2)cc1 | 5.73
O=C(NC(=S)Nc1ccc(Br)cc1)c1ccc2c(c1)Sc1ccccc1S2 | 74.8

Challenge: Please give the measured TGI for this molecule: Cc1ccc(Nc2nc(=O)c3c4ccccc4n(C(=O)OC(C)(C)C)c3s2)cc1
Response given: 63.5

Challenge: Try COc1ccc2c(c1)C(=O)/C(=C/c1ccc(OCC(=O)Nc3nccs3)cc1)O2 next.
Response given: 23.2

Challenge: Try Cc1nnc2n1N=C(c1ccccc1)/C(=C/c1ccc(-c3ccc(Cl)cc3)o1)S2 next.
Response given: 29.1

Challenge: Try CCOC(=O)C(Sc1ccccc1)c1c(OC)cc(=O)oc1/C=[N+](/[O-])c1ccc(N(C)C)cc1 (stereo not given) next.
Response given: 51.8

Challenge: Try CCCCCCCC(=O)SCC/C=C/[C@@H]1CC(=O)NCc2cccc(n2)C2=N[C@@](C)(CS2)C(=O)N[C@@H](C(C)C)C(=O)N1 next.
Response given: 4.88

---

A set of compounds tested on MDA-MB-435, with measured GI50:

The following compounds have reported results that may help.
COc1ccc(-c2cc(-c3ccc(Nc4nc(Nc5ccccc5)nc(Nc5ccc(Cl)cc5)n4)cc3)nc(N)c2C#N)cc1 | 0.962 µM
CCc1ccc2c(c1)C(=O)c1c-2n(CCCBr)c(=O)c2cc([N+](=O)[O-])ccc12 | > 50 µM
O=C1NNC(=O)c2ccccc2SSc2ccccc2C(=O)NNC(=O)c2ccccc2SSc2ccccc21 | 16.3 µM

Challenge: Please give the measured GI50 for this compound: CN(C)c1ccc(-c2cc(-c3ccc(Nc4nc(Nc5ccc(Cl)cc5)nc(Nc5ccc(Cl)cc5)n4)cc3)no2)cc1
Response given: 3.33 µM

---

Test system: SW-620 colon
Test: NCI tumour cell line growth inhibition, 48 h; in the data active = GI50 below about 0.43 µM; inactive = the rest
Please answer using one outcome listed in active, inactive

Fc1ccc(Nc2ncnc3ccc(-c4cnc5[nH]ccc5c4)cc23)cc1Cl | inactive
COc1ccc2c(c1)C(=O)/C(=C/c1ccc(OCC(=O)Nc3nccs3)cc1)O2 | inactive
COc1cc2nc(C)nc(N[C@H](C)c3cc(N)cc(C(F)(F)F)c3)c2cc1O[C@H]1CCOC1 | inactive
NC(CSC(c1ccccc1)(c1ccccc1)c1ccc2c(c1)OCO2)C(=O)O (stereo not given) | active
CCOc1ccccc1-n1c(CN2CCN(C(=O)COc3ccc(CNCCCCCCN4C5CCCC4CC(OC(=O)Nc4cc(C)ccc4OC)C5)cc3)CC2)nc2ccccc2c1=O (stereo not given) | inactive

Challenge: Any idea what this test logged for Cn1ccnc1C(=O)/C=C/c1ccc(CC(=O)Nc2ccc(Br)cc2)cc1 ?
Response given: inactive

Challenge: Try COc1ccc(C2=CSc3cc(Cl)c(C)cc3S(=O)(=O)N2C(C)=O)cc1 next.
Response given: inactive

---

Test system: SR leukemia
Assay: NCI tumour cell line growth inhibition, 48 h
Catalogue of TGI values

The following compounds have reported results that may help.
C=C1C[C@@H]2CC[C@@]34CC5O[C@H]6C(O[C@H]7CC[C@H](CC(=O)O[C@@H]8[C@@H](C)[C@@H]9O[C@@H]%10C[C@]%11(C[C@@H]%12O[C@]%13(C[C@H](C)[C@@H]%14O[C@@H]%15CC(C(O)CO)O[C@@H]%15C[C@@H]%14O%13)C[C@H](C)[C@@H]%12O%11)O[C@@H]%10C[C@@H]9O[C@H]8CC8O[C@@H](CC[C@@H]1O2)C[C@@H](C)C8(O)CO)O[C@@H]7[C@@H]6O3)[C@H]5O4 (some centres undefined) | > 1 µM
COc1ccc(/C=C\c2cc(OC)c3c(c2)OCO3)c(O)c1O | > 41.5 µM
NC1CCC(Nc2nc(NCc3ccc(-c4ccco4)nc3)c3ncn(C4CCCC4)c3n2)CC1 (centres undefined) | 0.19 µM
COc1cc2c(c(OC)c1O)C(=O)C(OC)C(c1ccc(O)c(O)c1)O2 (centres undefined) | > 100 µM
O=C(O)c1cc(C(=O)O)cc(N2C(=O)c3ccccc3C2=O)c1 | > 100 µM

Challenge: Please give the measured TGI for this compound: COc1cc2c(cc1OC)[C@@H]1[C@H](C#N)C(=O)C(C)(C)N1CC2
Response given: > 100 µM

Challenge: Try C=CCc1cc(OC)c2c(c1)C(O)CC(c1ccc(OC)c(OC)c1)O2 (centres undefined) next.
Response given: > 100 µM
